Source listed as PubChem BioAssay.

# EXPERIMENTAL SYSTEM: Neurogenic locus notch homolog protein 3 (Homo sapiens) (UniProt Q9UM47)
# Sequence (Q9UM47 whole entry, looked up): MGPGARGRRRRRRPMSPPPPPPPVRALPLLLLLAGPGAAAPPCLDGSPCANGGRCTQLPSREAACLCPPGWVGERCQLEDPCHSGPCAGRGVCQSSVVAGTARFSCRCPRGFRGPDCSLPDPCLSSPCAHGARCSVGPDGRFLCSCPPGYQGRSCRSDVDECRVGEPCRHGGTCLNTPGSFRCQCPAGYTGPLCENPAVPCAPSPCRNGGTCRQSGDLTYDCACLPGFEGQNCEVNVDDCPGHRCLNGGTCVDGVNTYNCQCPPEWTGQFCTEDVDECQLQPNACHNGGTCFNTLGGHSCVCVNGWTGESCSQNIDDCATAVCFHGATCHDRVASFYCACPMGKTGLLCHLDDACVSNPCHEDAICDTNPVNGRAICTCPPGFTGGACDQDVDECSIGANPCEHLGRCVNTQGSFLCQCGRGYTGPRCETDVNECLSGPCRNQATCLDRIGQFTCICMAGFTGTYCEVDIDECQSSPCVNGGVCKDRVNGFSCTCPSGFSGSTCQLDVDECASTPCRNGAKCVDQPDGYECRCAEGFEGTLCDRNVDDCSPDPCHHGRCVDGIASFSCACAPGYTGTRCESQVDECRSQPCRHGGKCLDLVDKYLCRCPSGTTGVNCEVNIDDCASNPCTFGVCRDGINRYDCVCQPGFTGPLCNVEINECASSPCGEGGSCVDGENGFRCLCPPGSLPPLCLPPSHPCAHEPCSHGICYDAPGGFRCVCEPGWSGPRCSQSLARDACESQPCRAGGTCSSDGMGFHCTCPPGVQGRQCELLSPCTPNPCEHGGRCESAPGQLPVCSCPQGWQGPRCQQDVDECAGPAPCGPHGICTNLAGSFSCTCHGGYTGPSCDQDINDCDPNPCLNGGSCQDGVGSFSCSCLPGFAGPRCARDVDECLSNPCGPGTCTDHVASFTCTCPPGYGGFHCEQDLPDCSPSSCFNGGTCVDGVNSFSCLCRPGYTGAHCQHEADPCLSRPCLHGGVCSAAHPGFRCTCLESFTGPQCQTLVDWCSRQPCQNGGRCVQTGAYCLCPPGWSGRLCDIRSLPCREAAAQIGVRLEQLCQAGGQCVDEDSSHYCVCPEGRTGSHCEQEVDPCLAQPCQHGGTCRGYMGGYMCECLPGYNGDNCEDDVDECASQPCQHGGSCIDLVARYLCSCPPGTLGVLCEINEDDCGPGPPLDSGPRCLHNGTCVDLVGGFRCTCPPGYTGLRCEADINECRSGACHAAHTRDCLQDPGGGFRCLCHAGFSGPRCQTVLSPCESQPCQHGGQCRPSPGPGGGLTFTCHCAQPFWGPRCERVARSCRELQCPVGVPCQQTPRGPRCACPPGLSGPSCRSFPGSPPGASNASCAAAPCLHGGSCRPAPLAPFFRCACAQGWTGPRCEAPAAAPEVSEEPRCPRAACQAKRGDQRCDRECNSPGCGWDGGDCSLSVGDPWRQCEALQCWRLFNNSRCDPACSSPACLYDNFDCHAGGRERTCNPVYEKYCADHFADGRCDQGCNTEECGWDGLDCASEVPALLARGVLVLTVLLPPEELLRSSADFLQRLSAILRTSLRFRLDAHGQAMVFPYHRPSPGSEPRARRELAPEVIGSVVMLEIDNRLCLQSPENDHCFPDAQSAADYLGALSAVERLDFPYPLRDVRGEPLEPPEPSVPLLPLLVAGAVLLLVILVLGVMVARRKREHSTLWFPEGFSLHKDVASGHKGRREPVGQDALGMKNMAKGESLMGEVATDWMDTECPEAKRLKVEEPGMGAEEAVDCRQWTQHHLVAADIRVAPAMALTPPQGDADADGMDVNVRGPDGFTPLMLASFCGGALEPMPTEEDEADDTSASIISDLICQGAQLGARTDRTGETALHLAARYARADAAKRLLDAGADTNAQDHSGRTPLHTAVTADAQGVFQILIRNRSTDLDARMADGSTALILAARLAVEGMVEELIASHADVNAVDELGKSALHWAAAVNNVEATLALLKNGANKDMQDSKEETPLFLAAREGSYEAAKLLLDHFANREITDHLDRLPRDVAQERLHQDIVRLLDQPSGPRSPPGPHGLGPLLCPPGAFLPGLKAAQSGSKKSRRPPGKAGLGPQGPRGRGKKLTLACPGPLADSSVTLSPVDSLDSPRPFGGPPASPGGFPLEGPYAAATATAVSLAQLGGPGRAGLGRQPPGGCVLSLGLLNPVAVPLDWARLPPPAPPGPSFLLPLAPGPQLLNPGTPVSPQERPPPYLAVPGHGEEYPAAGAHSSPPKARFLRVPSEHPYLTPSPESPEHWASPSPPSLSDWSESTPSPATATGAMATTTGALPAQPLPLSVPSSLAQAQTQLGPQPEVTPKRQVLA
# ASSAY NOTES: small molecules binding NOTCH3 protein – biochemical, 635/667 nm fluorescence, primary screen (AID 1096)
# MEASUREMENT CONDITIONS: small-molecule microarray, 635 nm fluorescence, higher = more signal
ASSAY ENDPOINT: composite z-score

{"MOLECULE": "COC(=O)[C@@]1(Cc2ccc(OC)cc2)[C@H]2c3cc(C(=O)N4CCCC4)n(CCc4ccccn4)c3C[C@H]2CN1C(=O)c1ccccc1", "MEASUREMENT": -0.14}
{"MOLECULE": "COc1ccc([Si](C)(C)[C@@H]2[C@@H](CCO)O[C@]3(C(=O)N(Cc4ccccc4)c4ccc(N(C=O)c5ccccc5)cc43)[C@H]2C)cc1", "MEASUREMENT": 0.718}
{"MOLECULE": "Cc1ccc(N2C(=O)c3ccccc3[C@@H](C(=O)NC(C)C)[C@@H]2c2ccc(CO)cc2)nc1", "MEASUREMENT": -0.528}
{"MOLECULE": "CC(=O)n1cc(C(O)C2C=CC3C(=O)N(c4ccccc4)C(=O)C3N2Nc2ccc(C#N)cc2)c2ccccc21 (centres undefined)", "MEASUREMENT": 0.48}
